# System: Colletotrichum lindemuthianum
# experiment notes: Colletotrichum lindemuthianum in vitro cell test
# Assay type: cell-based
# measurement conditions: 144 h, 20 ppm of active ingredient, liquid culture, 6 days incubation, read-out: efficacy (inhibition of fungal growth)
# Protocol: B-7. […] Fungicides were evaluated for their ability to inhibit spores germination and mycelium growth in liquid culture assay. […] After 6 days incubation, fungi-toxicity of compounds was determined by spectrometric measurement of mycelium growth. Inhibition of fungal growth was determined by comparing the absorbance values in wells containing the fungicides with the absorbance in control wells without fungicides.
Exercise: state measured inhibition at 20 ppm for each of the compounds provided.

inhibition at 20 ppm recorded for this compound, Clc1cccc(Sc2nnc(Cl)cc2C2=NOC[C@@H](Cc3ccc(Cl)cc3Cl)N2)c1 (racemic) , is 90 to 100%

Sure, the documented inhibition at 20 ppm for COc1cccc(Sc2cnc3ccccc3c2C2=NOC[C@H](Cc3ccc(C)cc3C)N2)c1 (racemic) is 90 to 100%

Record Cc1ccc(C[C@H]2CON=C(c3nc(C)ncc3Sc3cccc(OC(F)(F)F)c3)N2)c(Cl)c1 (racemic) . Reported inhibition at 20 ppm: 70 to 79%

* * *

# experiment notes: Measurement of Log P values by HPLC on reversed phase columns (EEC directive 79/831 Annex V.A8)
# Format: physicochemical
# measurement conditions: Table 1, compounds of formula (I); method [a]: LC-UV, acidic range, 0.1% formic acid in water and acetonitrile
metric: chromatographic logP

compound Cc1cc([C@H]2CON=C(c3c(Sc4ccc(Cl)cc4)nnc(C)c3C)N2)c(C)s1 (racemic) , chromatographic logP observed: 3.49

Entry Cc1ccc([C@H]2CON=C(c3c(Sc4ccc(Cl)cc4)nnc(C)c3C)N2)s1 (racemic) , chromatographic logP reported as 3.14

response.value for Cc1ccc([C@@H]2CON=C(c3c(Sc4ccccc4C)nnc(C)c3C)N2)s1 (racemic) (field: chromatographic logP) = 2.94

chromatographic logP for Cc1ccc([C@H]2CON=C(c3c(Sc4cccc(OC(F)(F)F)c4)nnc4ccccc34)N2)s1 (racemic) is 3.92

* * *

# experiment notes: Measurement of Log P values by HPLC on reversed phase columns (EEC directive 79/831 Annex V.A8)
# Assay type: physicochemical
# measurement conditions: Table 1, compounds of formula (I); method [a]: LC-UV, acidic range, 0.1% formic acid in water and acetonitrile
metric: chromatographic logP
Number only, please.

Note to self: chromatographic logP recorded for Cc1ccc(Sc2nnc(C)c(C)c2C2=NOC[C@@H](c3cc(C)sc3C)N2)c(C)c1 (racemic) [Compound I-087] was 3.68

Data point: Cc1ccc([C@H]2CON=C(c3c(Sc4cccc(C(F)(F)F)c4)nnc4ccccc34)N2)s1 (racemic) [Compound I-109] ; chromatographic logP = 3.81

For Cc1cc([C@@H]2CON=C(c3c(Sc4ccc(F)cc4)nnc(C)c3C)N2)c(C)s1 (racemic) [Compound I-081] the compound record lists chromatographic logP as 3.18

# compound Cc1ccc([C@H]2CON=C(c3c(Sc4cccc(F)c4)nnc(C)c3C)N2)s1 (racemic) [Compound I-125] ; its chromatographic logP = 2.83

Reported chromatographic logP for Cc1ccc([C@H]2CON=C(c3c(Sc4ccc(F)c(Cl)c4)nnc4ccccc34)N2)s1 (racemic) [Compound I-068] was 3.74

Lab book: chromatographic logP of Cc1ccc([C@@H]2CON=C(c3c(Sc4cccc5ccccc45)nnc4ccccc34)N2)s1 (racemic) [Compound I-102] noted as 3.8

Measured chromatographic logP, Cc1ccc([C@H]2CON=C(c3c(Sc4cccc(Cl)c4F)nnc4ccccc34)N2)s1 (racemic) [Compound I-108] : 3.68

The reported value for COc1cccc(Sc2nnc(C)c(C)c2C2=NOC[C@@H](c3ccc(C)s3)N2)c1 (racemic) [Compound I-084] in terms of chromatographic logP is 2.77

Reported chromatographic logP of COc1ccc(Sc2nnc3ccccc3c2C2=NOC[C@H](c3ccc(C)s3)N2)cc1 (racemic) [Compound I-077] : 3.22

Recorded chromatographic logP (compound COc1ccc(Sc2nnc(C)c(C)c2C2=NOC[C@@H](c3cc(C)sc3C)N2)cc1 (racemic) [Compound I-049] ): 3.11

Item: Cc1ccc([C@H]2CON=C(c3c(Sc4ccc(Cl)cc4)nnc4ccccc34)N2)s1 (racemic) [Compound I-070] | chromatographic logP: 3.62

For record Cc1ccc(Sc2nnc3ccccc3c2C2=NOC[C@H](c3ccc(C)s3)N2)cc1 (racemic) [Compound I-101] the listed chromatographic logP is 3.49

Measured chromatographic logP, Cc1ccc([C@H]2CON=C(c3c(Sc4ccc(C(C)(C)C)cc4)nnc4ccccc34)N2)s1 (racemic) [Compound I-113] : 4.43

The recorded chromatographic logP for entry Cc1ccc([C@H]2CON=C(c3c(Sc4ccc(C)c(C)c4)nnc(C)c3C)N2)s1 (racemic) [Compound I-093] equals 3.26

Lookup result for COc1cccc(Sc2nnc(C)c(C)c2C2=NOC[C@@H](c3cc(C)sc3C)N2)c1 (racemic) [Compound I-079] ; measured chromatographic logP: 3.11

Measured chromatographic logP, Cc1ccc([C@@H]2CON=C(c3c(Sc4cccc(C(F)(F)F)c4)nnc(C)c3C)N2)s1 (racemic) [Compound I-044] : 3.36

According to the records, this compound Cc1ccc(C[C@H]2CON=C(c3nc(C)ncc3Sc3cccc(OC(F)(F)F)c3)N2)c(Cl)c1 (racemic) [Compound I-021] displays chromatographic logP of 5.46

Entry Cc1ccc(C[C@@H]2CON=C(c3nc(C)ncc3Sc3cccc(Cl)c3)N2)c(C)c1 (racemic) [Compound I-031] , chromatographic logP reported as 5.16

For reference, reported chromatographic logP for CCOc1cccc(Sc2nnc(C)c(C)c2C2=NOC[C@@H](c3ccc(C)s3)N2)c1 (racemic) [Compound I-074] stands at 3.09

chromatographic logP for Cc1cccc(Sc2cnc(C)nc2C2=NOC[C@@H](Cc3ccc(C)cc3C)N2)c1 (racemic) [Compound I-032] is 5.09

// COc1cccc(Sc2nnc(Cl)cc2C2=NOC[C@@H](Cc3ccc(Cl)cc3Cl)N2)c1 (racemic) [Compound I-034] : chromatographic logP value = 4.3

The compound Cc1ccc(C)c(Sc2nnc(C)c(C)c2C2=NOC[C@H](c3ccc(C)s3)N2)c1 (racemic) [Compound I-043] showed chromatographic logP equal to 3.28

Measured chromatographic logP of Cc1cc([C@@H]2CON=C(c3c(Sc4cccc(Cl)c4)nnc(C)c3C)N2)c(C)s1 (racemic) [Compound I-100] : 3.49

Short answer for Cc1ccc([C@H]2CON=C(c3c(Sc4ccccc4C)nnc4ccccc34)N2)s1 (racemic) [Compound I-110] : chromatographic logP was 3.45

For this compound ( COc1cccc(Sc2cnc(Cl)cc2C2=NOC[C@H](Cc3ccc(Cl)cc3Cl)N2)c1 (racemic) [Compound I-002] ), measured chromatographic logP is 4.51

Input Cc1cccc(Sc2nnc(C)c(C)c2C2=NOC[C@H](c3cc(C)sc3C)N2)c1 (racemic) [Compound I-078] . Output chromatographic logP: 3.33

For reference, reported chromatographic logP for Cc1ccc([C@H]2CON=C(c3c(Sc4cc(Cl)ccc4Cl)nnc(C)c3C)N2)s1 (racemic) [Compound I-053] stands at 3.4

Query Cc1cccc(Sc2nnc3ccccc3c2C2=NOC[C@H](c3ccc(C)s3)N2)n1 (racemic) [Compound I-066] yields chromatographic logP of 2.69

For reference, reported chromatographic logP for Cc1ccc([C@H]2CON=C(c3c(Sc4ccc5ccccc5c4)nnc4ccccc34)N2)s1 (racemic) [Compound I-098] stands at 3.81

* * *

# Tested on: Alternaria brassicae
# experiment notes: In vivo preventive test on Alternaria brassicae (leaf spot on radish or cabbage)
# measurement conditions: 500 ppm of active ingredient, sprayed on young radish or cabbage plants 24 h before inoculation, evaluated 3 to 4 days after inoculation, read-out: efficacy
I'd be grateful if you could share measured pest or weed control at 500 ppm for these entries.

Input Cc1ccc([C@H]2CON=C(c3c(Sc4ccc(F)c(F)c4)nnc4ccccc34)N2)s1 (racemic) . Output pest or weed control at 500 ppm: 80 to 89%

The reported value for Cc1ccc([C@H]2CON=C(c3c(Sc4cccc(C(F)(F)F)c4)nnc4ccccc34)N2)s1 (racemic) in terms of pest or weed control at 500 ppm is 90 to 100%

Measured pest or weed control at 500 ppm, Cc1ccc(C[C@@H]2CON=C(c3c(Sc4cccc(C(F)(F)F)c4)nnc4ccccc34)N2)c(C)c1 (racemic) : 80 to 89%

// pest or weed control at 500 ppm lookup, compound = Cc1cc([C@H]2CON=C(c3c(Sc4ccc(F)c(Cl)c4)nnc(C)c3C)N2)c(C)s1 (racemic) , result: 70 to 79%

Briefly, pest or weed control at 500 ppm measured for Cc1cccc(Sc2nnc3ccccc3c2C2=NOC[C@H](c3ccc(C)s3)N2)c1 (racemic) : 90 to 100%

Item: Cc1ccc([C@H]2CON=C(c3c(Sc4cccc(Cl)c4Cl)nnc4ccccc34)N2)s1 (racemic) | pest or weed control at 500 ppm: 90 to 100%

Looking up FC(F)(F)c1cccc(Sc2cnc(Cl)cc2C2=NOC[C@@H](Cc3ccc(Cl)cc3Cl)N2)c1 (racemic) , I found its pest or weed control at 500 ppm recorded as 80 to 89%
